target: ALK (Homo sapiens); construct: purchased DiscoverX; assay: scanMAX Kinase panel (DiscoverX), % control; assay type: binding; conditions: <35% = active
Sequence (Q9UM73 19-1620): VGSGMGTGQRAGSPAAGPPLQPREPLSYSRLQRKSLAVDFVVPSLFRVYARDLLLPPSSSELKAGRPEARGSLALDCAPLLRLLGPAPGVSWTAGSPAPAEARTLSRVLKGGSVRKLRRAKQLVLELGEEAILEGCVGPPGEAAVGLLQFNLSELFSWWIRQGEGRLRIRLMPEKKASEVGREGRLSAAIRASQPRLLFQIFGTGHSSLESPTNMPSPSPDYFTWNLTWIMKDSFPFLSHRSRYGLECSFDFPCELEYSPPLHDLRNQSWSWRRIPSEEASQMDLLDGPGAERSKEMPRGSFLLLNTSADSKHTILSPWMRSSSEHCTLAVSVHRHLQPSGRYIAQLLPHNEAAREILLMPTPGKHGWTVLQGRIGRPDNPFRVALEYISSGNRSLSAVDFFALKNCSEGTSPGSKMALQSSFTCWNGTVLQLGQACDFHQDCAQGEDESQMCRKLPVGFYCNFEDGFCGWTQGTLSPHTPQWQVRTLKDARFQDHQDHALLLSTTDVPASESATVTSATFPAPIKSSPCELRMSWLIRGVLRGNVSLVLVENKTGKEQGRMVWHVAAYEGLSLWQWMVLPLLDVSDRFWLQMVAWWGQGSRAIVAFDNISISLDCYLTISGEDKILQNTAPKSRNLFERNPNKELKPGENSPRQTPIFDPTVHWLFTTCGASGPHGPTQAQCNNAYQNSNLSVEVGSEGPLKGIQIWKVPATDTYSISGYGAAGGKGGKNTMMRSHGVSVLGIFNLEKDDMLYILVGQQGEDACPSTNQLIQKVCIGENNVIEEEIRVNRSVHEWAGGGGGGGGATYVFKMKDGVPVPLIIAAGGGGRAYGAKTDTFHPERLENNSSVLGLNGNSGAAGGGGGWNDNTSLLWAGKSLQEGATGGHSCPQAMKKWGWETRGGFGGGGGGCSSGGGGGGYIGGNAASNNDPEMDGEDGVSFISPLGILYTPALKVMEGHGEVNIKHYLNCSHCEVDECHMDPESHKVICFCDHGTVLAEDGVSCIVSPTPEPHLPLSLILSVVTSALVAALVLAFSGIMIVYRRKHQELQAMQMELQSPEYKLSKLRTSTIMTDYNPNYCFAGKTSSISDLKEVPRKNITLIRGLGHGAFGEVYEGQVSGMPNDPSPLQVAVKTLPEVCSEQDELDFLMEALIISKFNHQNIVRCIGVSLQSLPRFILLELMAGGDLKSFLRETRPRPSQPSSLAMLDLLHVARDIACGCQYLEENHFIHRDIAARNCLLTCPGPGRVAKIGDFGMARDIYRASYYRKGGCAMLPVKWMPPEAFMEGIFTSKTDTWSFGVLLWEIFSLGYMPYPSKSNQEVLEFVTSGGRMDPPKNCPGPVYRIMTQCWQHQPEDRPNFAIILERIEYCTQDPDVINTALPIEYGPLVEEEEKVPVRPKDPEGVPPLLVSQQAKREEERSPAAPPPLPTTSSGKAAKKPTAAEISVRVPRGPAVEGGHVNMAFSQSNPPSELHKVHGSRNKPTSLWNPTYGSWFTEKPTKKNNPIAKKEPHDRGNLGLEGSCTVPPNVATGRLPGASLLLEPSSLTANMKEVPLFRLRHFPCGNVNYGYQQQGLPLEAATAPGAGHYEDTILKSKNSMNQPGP
remaining binding at 1 µM values, listed per item
Report only the number, with the unit % understood.

Compound structure: COCCNc1cc(Nc2ccc(P3(=O)CCN(C4CC4)CC3)cc2OC)nc2[nH]cc(C(F)(F)F)c12
Reported result: 5.9

Query: Would you kindly share the measured remaining binding at 1 µM for `CNc1cc(Nc2ccc(C(=O)N3CC[C@H](N4CCOCC4)C3)c3c2OCC3)nc2[nH]cc(C(F)(F)F)c12` ?
Reply: 3.8

Query: Would you kindly share the measured remaining binding at 1 µM for `CCNc1cc(Nc2ccc(P3(=O)CCN(C4CC4)CC3)cc2OC)nc2[nH]cc(C(F)(F)F)c12` ?
Reply: 9

Query: Would you kindly share the measured remaining binding at 1 µM for `CCNc1cc(Nc2ccc(S(=O)(=O)N3CCC(N4CCOCC4)CC3)c3c2OCCO3)nc2[nH]cc(C(F)(F)F)c12` ?
Reply: 9.5

Query: Would you kindly share the measured remaining binding at 1 µM for `CNc1cc(Nc2ccc(C(=O)N3CCC(N4CCOCC4)CC3)c3c2OCCO3)nc2[nH]cc(C(F)(F)F)c12` ?
Reply: 0.65

Query: Would you kindly share the measured remaining binding at 1 µM for `O=C(c1ccc(Nc2cc(C3CC3)c3c(C(F)(F)F)c[nH]c3n2)c2c1CCO2)N1CC[C@@H](N2CCOCC2)C1` ?
Reply: 67

Query: Would you kindly share the measured remaining binding at 1 µM for `O=C(c1ccc(Nc2cc(C3CC3)c3c(C(F)(F)F)c[nH]c3n2)c2c1OCCO2)N1CCC(N2CCOCC2)CC1` ?
Reply: 17

Query: Would you kindly share the measured remaining binding at 1 µM for `CCNc1cc(Nc2ccc(C(=O)N3CCC(N4C[C@@H]5C[C@H]4CO5)CC3)c3c2OCC3)nc2[nH]cc(C(F)(F)F)c12` ?
Reply: 0.3

Query: Would you kindly share the measured remaining binding at 1 µM for `CCCNc1cc(Nc2ccc(C(=O)N3CCC(N4CCOCC4)CC3)c3c2OCCO3)nc2[nH]cc(C(F)(F)F)c12` ?
Reply: 0.65

Query: Would you kindly share the measured remaining binding at 1 µM for `O=C(c1ccc(Nc2cc(C3CC3)c3c(C(F)(F)F)c[nH]c3n2)c2c1CCO2)N1CC[C@H](N2CCOCC2)C1` ?
Reply: 14

Query: Would you kindly share the measured remaining binding at 1 µM for `CNc1cc(Nc2ccc(S(=O)(=O)N3CCC(N4CCOCC4)CC3)cc2OC)nc2[nH]cc(C(F)(F)F)c12` ?
Reply: 15

Query: Would you kindly share the measured remaining binding at 1 µM for `CNc1cc(Nc2ccc(P3(=O)CCN(C4CC4)CC3)cc2OC)nc2[nH]cc(C(F)(F)F)c12` ?
Reply: 1.4

----------
tested on: IL-6; test: IL-6 secretion inhibition in LPS-treated THP-1 cells (ELISA); format: cell-based; details: Homo sapiens, compound 0.5 μM, LPS 500 ng/ml, 24 hours, read-out: THP1/IL6 (% inhib)
// label = label 1 if inhibition at 0.5 µM is not less than 40%, otherwise label 0

These solved cases illustrate the format of a correct answer.
Compound structure: CCNc1cc(Nc2ccc(C(=O)N3C[C@@H]4C[C@H]3CO4)c3c2OCCO3)nc2[nH]cc(C(F)(F)F)c12
Class: label 1

Compound structure: CCNc1cc(Nc2ccc(C(=O)N3CCN(CCO)CC3)c3c2OCC3)nc2[nH]cc(C(F)(F)F)c12
Class: label 1

Compound structure: CS(=O)(=O)CCNc1cc(Nc2ccc(C(=O)N3CCOCC3)c3c2OCCO3)nc2[nH]cc(C(F)(F)F)c12
Class: label 0

Let us examine a further case.
Query: inhibition at 0.5 µM >= 40% for `CNc1cc(Nc2ccc(S(=O)(=O)N3CCC(N4C[C@H]5C[C@@H]4CO5)CC3)cc2OC)nc2[nH]cc(C(F)(F)F)c12` ?
Reply: label 0

// data source = patent US12240844B2
